# Test system: SW-620 colon
# assay.info: NCI-60 one-dose screen, 48 h (100 = growth as untreated, 0 = no growth, -100 = all killed)
# run.conditions: 10 µM unless noted
This is part of a sample that, as a whole, favours compounds with a hit. Of some 83,000 tested, about 20% had one in any assay. The source made the active and inactive calls. How the source made its calls: active means growth percent below 10; inactive means the rest.
Known growth of a selection of molecules

Cc1ccc(C(=O)Nc2ccc(CN3CCN(C)CC3)c(C(F)(F)F)c2)cc1C#Cc1cnc(N)c2ccc(F)cc12    -83.6% (active)
COC(=O)c1cc(O)c2cc3c(cc2c1-c1cc(OC)c(OC)c(OC)c1)OCO3    17.8% (inactive)
O=C(Nc1cccc(Cn2c(=O)[nH]c3ccc(Oc4ncccn4)cc3c2=O)c1)c1cc(Cl)cc(Cl)c1    89.5% (inactive)
CCNc1nnc(COc2ccc(CNC(=O)CCCC/C=C/C(C)C)cc2OC)o1    110% (inactive)
O=C(N/N=C/c1ccccc1Cl)c1cccc2ccccc12    105% (inactive)

growth on SW-620 colon for CCCCCCCCCCC1OC(C)CC(C)O1 (stereo not drawn) is 103% (inactive)

growth on SW-620 colon for CCC(C)CC(N)O (stereo not drawn) is 108% (inactive)

growth on SW-620 colon for C=CCN(C)C is 105% (inactive)

growth on SW-620 colon for O=C(O)c1occ(Cl)c1Cl is 104% (inactive)

growth on SW-620 colon for COc1ccccc1C(=O)Nc1cccc(-c2cc(=O)c3c(OC)c(OC)c(OC)cc3o2)c1 is 63.4% (inactive)

====

# Test system: SK-MEL-2 melanoma
# assay.info: NCI-60 one-dose screen, 48 h
# run.conditions: 10 µM unless noted
About 83,000 compounds went through this panel and 20% of them were active in at least one assay; those are over-represented in the sample as a whole. Active and inactive are the calls of the source. The calls were made as follows: active = growth percent below 10; inactive = the rest.
Your reply should match one of these outcome classes. 1 (active), 0 (inactive)

COc1ccccc1CNCCCN1C(=O)c2ccc3c4c(ccc(c24)C1=O)C(=O)N(CCCNCc1ccccc1OC)C3=O    1
Cc1nc2c(nnn2-c2ccccc2)c2nc(-c3ccccc3)oc(=O)c12    0
CCCOC(=O)c1c(C)n(C)c2scc[n+]12    0
C/C(=N\Nc1ccc(Cl)cn1)c1ccc2ccccc2n1    0

**Query** Lab log entry: Cc1sc(NC(=O)c2ccc(C(C)(C)C)cc2)c(C(=O)O)c1C — outcome as called in the assay?
**Result** 0

====

# Tested on: U251 CNS
# assay.info: NCI-60 one-dose screen, 48 h
# run.conditions: 10 µM unless noted
About 83,000 compounds went through this panel and 20% of them were active in at least one assay; those are over-represented in the sample as a whole. Active and inactive are the calls of the source. How the source made its calls: active means growth percent below 10; inactive means the rest.
Your reply should match one of these outcome classes. class 1 (active), class 0 (inactive)

Use these answered entries as a reference point.
C=C[C@]1(C)C=C2C(=O)[C@@]3(O)OC[C@@]4(CCCC(C)(C)C43O)C2(O)C(O)C1 (stereo partly specified)    class 0
Cc1ccnc2c(NC(C)CCCN)cc(O)c(O)c12 (stereo unspecified)    class 0

Now consider a different molecule.
**Query** Lab log entry: CC1(C)CC(=O)C2=C(C1)Oc1nc(N)c(C#N)c(N)c1C2c1ccc(F)cc1 (stereo unspecified) — outcome as called in the assay?
**Result** class 0

====

# Test system: NCI-H23 lung
# assay.info: NCI-60 one-dose screen, 48 h
# run.conditions: 10 µM unless noted
About 83,000 compounds went through this panel and 20% of them were active in at least one assay; those are over-represented in the sample as a whole. Activity calls are given as the source filed them. How the source made its calls: active means growth percent below 10; inactive means the rest.
Your reply should match one of these outcome classes. active, inactive

Use these answered entries as a reference point.
O=C(CN1C(=O)NC(c2ccccc2)(c2ccccc2)C1=O)c1ccc(N2CCCC2)cc1    inactive
c1cc(C2CCCCC2)ccc1OCCCCCCN1CCNCC1    inactive
CC(C)(C)c1cc(C[P+](c2ccc(Cl)cc2)(c2ccc(Cl)cc2)c2ccc(Cl)cc2)cc(C(C)(C)C)c1O    inactive
COC(=O)[C@H](Cc1cn(C)cn1)NC(=O)[C@@H](NC(=O)Nc1cc(C(F)(F)F)cc(C(F)(F)F)c1)C(C)(C)C    active
S=C(N/N=C/c1cc(Cl)cc(Cl)c1)NC12CC3CC(CC(C3)C1)C2    inactive

**Query** Lab log entry: Cc1ccc([C@@H]2C[C@H](O)Cc3ccccc3N2)s1 — outcome as called in the assay?
**Result** inactive

**Query** Lab log entry: COC(=O)c1ccc2[nH]c(O)c(C(=Nc3ccc(N(C)C(=O)CN4CCN(C)CC4)cc3)c3ccc4c(c3)OCO4)c2c1 — outcome as called in the assay?
**Result** active

**Query** Lab log entry: C=C(C)[C@@H]1CC[C@]2(COC(=O)c3ccccc3C(=O)O)CC[C@]3(C)[C@H](CC[C@@H]4[C@@]5(C)CCCNC(C)(C)[C@@H]5CC[C@]43C)[C@@H]12 — outcome as called in the assay?
**Result** inactive

**Query** Lab log entry: CC#Cc1nc(Nc2cc(C)[nH]n2)c2ccccc2n1 — outcome as called in the assay?
**Result** active

**Query** Lab log entry: COc1cc(-c2nn(-c3ccc(NC(=O)Nc4ccc(Cl)c(Cl)c4)cc3)cc2-c2ccncc2)ccc1Cl — outcome as called in the assay?
**Result** inactive

**Query** Lab log entry: COc1ccc(/C=C2\CCCC3=C2N=C2SC=NN2C3c2ccc(OC)c(OC)c2)cc1OC (stereo not drawn) — outcome as called in the assay?
**Result** inactive

**Query** Lab log entry: CCOC(=O)c1c(C)oc2ncnc(Nc3ccc(NC(=O)Nc4ccc(CC)cc4)cc3)c12 — outcome as called in the assay?
**Result** inactive

**Query** Lab log entry: COC(=O)c1ccc2[nH]c(O)c(C(=Nc3ccc(N(C)C(=O)CN4CCN(C)CC4)cc3)c3ccc(N)cc3)c2c1 — outcome as called in the assay?
**Result** inactive

**Query** Lab log entry: Br/C(=N\Nc1nn[nH]n1)c1ccccc1 — outcome as called in the assay?
**Result** inactive

**Query** Lab log entry: CN1NC(c2ccccc2)NN(C)C1=O — outcome as called in the assay?
**Result** inactive

**Query** Lab log entry: O=C(/C=C\c1ccc(NCc2ccc(C(=O)O)cc2)cc1)CCl — outcome as called in the assay?
**Result** inactive

**Query** Lab log entry: CCOC(=O)CNS(=O)(=O)CC(=O)c1ccccc1 — outcome as called in the assay?
**Result** inactive

**Query** Lab log entry: Nc1ccc(S(=O)(=O)c2ccc(NO)cc2)cc1 — outcome as called in the assay?
**Result** inactive

**Query** Lab log entry: COc1cc(/C=C/C(=O)c2ccc(F)cc2)ccc1OCCCCOc1cc2c(cc1OC)C(=O)N1CCCC1C=N2 (stereo not drawn) — outcome as called in the assay?
**Result** active

**Query** Lab log entry: CCS(=O)(=O)OCCO[C@H]1Cc2cc3ccc(=O)oc3cc2OC1(C)C — outcome as called in the assay?
**Result** inactive

====

# Test system: U251 CNS
# assay.info: NCI-60 one-dose screen, 48 h (100 = growth as untreated, 0 = no growth, -100 = all killed)
# run.conditions: 10 µM unless noted
The panel holds about 83,000 compounds, 20% with a hit somewhere; the sample as a whole holds those more often. Activity calls are given as the source filed them. Rule for the calls: active = growth percent below 10; inactive = the rest.
measured.attribute: growth

Use the examples below as a reference point.
COc1cc(-c2nn(-c3ccc(NC(=O)c4ccc(Cl)c(Cl)c4)cc3)cc2-c2ccncc2)ccc1Cl    48.7% (inactive)
NNC(=O)CNc1ccc2ccccc2c1    101% (inactive)

Consider CCC(CCCN1C(=O)c2ccccc2C1=O)Nc1cc(OC)cc2c(C)ccnc12 (stereo unspecified) . Its measured growth is 90.7% (inactive)

Consider Brc1c(-c2ccncc2)nc2n1CCS2 . Its measured growth is 91.3% (inactive)

Consider O=C1N/C(=N\c2nnc(-c3ccc(O)cc3)s2)S/C1=C\c1ccccc1O . Its measured growth is 101% (inactive)

Consider CCOC(=O)/C(C#N)=C(/CC)OCC . Its measured growth is 103% (inactive)

Consider CCN(CC)CCCNc1c2ccc(Cl)cc2nc2ccc(OC)cc12 . Its measured growth is -14.9% (active)

Consider Clc1ccc(N/N=C(/c2ccccc2)c2ccccn2)nc1 . Its measured growth is 42.1% (inactive)

Consider C=CCNC(=S)NNc1ccc([N+](=O)[O-])cn1 . Its measured growth is 101% (inactive)

Consider C/C=C/C/C=C/[C@H](C)C[C@H](O)[C@@H]1C[C@@H]2O[C@H]2/C=C/[C@H](O)[C@@H](O)/C=C/C[C@H](C)CC(=O)O1 . Its measured growth is 87.4% (inactive)

Consider Cc1ncc(C(=O)Nc2ccc(CN3CCN(C)CC3)c(C(F)(F)F)c2)cc1C#Cc1c(N)ncc2ccc(F)cc12 . Its measured growth is -88.3% (active)

Attribution: PubChem BioAssay (NCI)
